system: liver and kidney functions; assay: Effect on liver and kidney functions; format: in vivo, Male Wister rats; conditions: Table 6; rats, oral 50 mg/kg, 6 h after last dose; mean ± SD, n = 10
property measured: Serum Creatinine (mg/dL)
Answer in mg/dL, number only, no unit symbol.

Req: Which Serum Creatinine value belongs to N#CC1(c2ccccc2)CCN(CC(=O)Nc2ccc(S(N)(=O)=O)cc2)CC1 [CP-1] ?
Resp: 0.88

Req: Try the compound COc1ccc(C2CCN(CC(=O)Nc3ccc(S(N)(=O)=O)cc3)CC2)cc1 [CP-5]
Resp: 0.86

Req: Try the compound Cc1cccc(N2CCN(CC(=O)Nc3ccc(S(N)(=O)=O)cc3)CC2)c1C [CP-6]
Resp: 0.83

Req: Try the compound Cc1cc(NCC(=O)Nc2ccc(S(N)(=O)=O)cc2)c2ccccc2n1 [CP-7]
Resp: 0.85

----------
system: liver and kidney functions; assay: Effect on liver and kidney functions; type: in vivo, Male Wister rats; conditions: Table 6; rat serum, oral 50 mg/kg, 6 h after last dose; mean ± SD, n = 10
property measured: ALT (U/l)
Answer in U/l, number only, no unit symbol.

Req: Which ALT value belongs to `N#CC1(c2ccccc2)CCN(CC(=O)Nc2ccc(S(N)(=O)=O)cc2)CC1` ?
Resp: 35.77

Req: Try the molecule `NS(=O)(=O)c1ccc(NC(=O)CN2CCC(N3CCCCC3)CC2)cc1`
Resp: 36.87

Req: Try the molecule `COc1ccc(C2CCN(CC(=O)Nc3ccc(S(N)(=O)=O)cc3)CC2)cc1`
Resp: 36.35

Req: Try the molecule `NS(=O)(=O)c1ccc(NC(=O)CN2CCC(c3ccc(Cl)cc3)CC2)cc1`
Resp: 36.87

Req: Try the molecule `Cc1cccc(N2CCN(CC(=O)Nc3ccc(S(N)(=O)=O)cc3)CC2)c1C`
Resp: 36.02

Req: Try the molecule `Cc1cc(NCC(=O)Nc2ccc(S(N)(=O)=O)cc2)c2ccccc2n1`
Resp: 36.33

----------
Exercise: for every item that follows, state its recorded AST.
tested on: liver and kidney functions; assay: Effect on liver and kidney functions; assay type: in vivo, Male Wister rats; conditions: Table 6; rat serum, oral 50 mg/kg, 6 h after last dose; mean ± SD, n = 10
Answer in U/l, number only, no unit symbol.

Req: Which AST value belongs to NS(=O)(=O)c1ccc(NC(=O)CN2CCC(N3CCCCC3)CC2)cc1 [CP-4] ?
Resp: 44.16

Req: Try the compound Cc1cc(NCC(=O)Nc2ccc(S(N)(=O)=O)cc2)c2ccccc2n1 [CP-7]
Resp: 46.16

Req: Try the compound Cc1cccc(N2CCN(CC(=O)Nc3ccc(S(N)(=O)=O)cc3)CC2)c1C [CP-6]
Resp: 44.7

Req: Try the compound N#CC1(c2ccccc2)CCN(CC(=O)Nc2ccc(S(N)(=O)=O)cc2)CC1 [CP-1]
Resp: 44.43

Req: Try the compound NS(=O)(=O)c1ccc(NC(=O)CN2CCC(c3ccc(Cl)cc3)CC2)cc1 [CP-3]
Resp: 44.16

Req: Try the compound COc1ccc(C2CCN(CC(=O)Nc3ccc(S(N)(=O)=O)cc3)CC2)cc1 [CP-5]
Resp: 44.09

----------
system: liver and kidney functions; assay: Effect on liver and kidney functions; assay type: in vivo, Male Wister rats; settings: Table 6; rats, oral 50 mg/kg, 6 h after last dose; mean ± SD, n = 10
property measured: Blood Urea
Remember to put the unit after the number in your answer.

Req: Which Blood Urea value belongs to `Cc1cc(NCC(=O)Nc2ccc(S(N)(=O)=O)cc2)c2ccccc2n1` ?
Resp: 53.00 ± 0.14 mg/dL

Req: Try the compound `Cc1cccc(N2CCN(CC(=O)Nc3ccc(S(N)(=O)=O)cc3)CC2)c1C`
Resp: 51.00 ± 0.89 mg/dL

Req: Try the compound `NS(=O)(=O)c1ccc(NC(=O)CN2CCC(c3ccc(Cl)cc3)CC2)cc1`
Resp: 46.02 ± 1.10 mg/dL

Req: Try the compound `NS(=O)(=O)c1ccc(NC(=O)CN2CCC(N3CCCCC3)CC2)cc1`
Resp: 47.96 ± 0.84 mg/dL

Req: Try the compound `COc1ccc(C2CCN(CC(=O)Nc3ccc(S(N)(=O)=O)cc3)CC2)cc1`
Resp: 55.92 ± 0.55 mg/dL
